assay: Oral bioavailability in Sprague-Dawley rat at 10 mg/kg; type: ADME, organism-based; settings: in vivo
observed property: bioavailability (%)

These solved cases illustrate the format of a correct answer.
In: Give recorded bioavailability. O=C(c1ccc(CN2CCC(F)CC2)cc1)N1CCN(C2CC2)CC1
Out: 14

In: Give recorded bioavailability. Cl.O=C(c1ccc(CN2CCOCC2)cc1)N1CCN(C2CC2)CC1
Out: 112

In: Give recorded bioavailability. CC(C)N1CCN(C(=O)c2ccc(CN3CCOCC3)cc2)CC1.O=C(O)/C=C\C(=O)O
Out: 62

In: Give recorded bioavailability. O=C(c1ccc(CN2CCC(F)CC2)cc1)N1CCN(C2CCC2)CC1
Out: 31

In: Give recorded bioavailability. O=C(c1ccc(CN2CCOCC2)cc1)N1CCN(C2CCC2)CC1
Out: 85

A. CC(C)N1CCN(C(=O)c2ccc(CN3CCCCC3)cc2)CC1
B. CC(C)N1CCN(C(=O)c2ccc(CN3CCC(F)CC3)cc2)CC1
In: Returns: the argument ( A or B ) having the larger bioavailability. Write the label of whichever entry you select.
Out: A
(A: 52%, B: 17%)
